The measurements presented in this section are drawn from ChEMBL document CHEMBL1137864.

molecular target: Melanocortin receptor 4 (Homo sapiens); test: Agonistic activity against human Melanocortin 4 receptor
Sequence (P32245 whole entry): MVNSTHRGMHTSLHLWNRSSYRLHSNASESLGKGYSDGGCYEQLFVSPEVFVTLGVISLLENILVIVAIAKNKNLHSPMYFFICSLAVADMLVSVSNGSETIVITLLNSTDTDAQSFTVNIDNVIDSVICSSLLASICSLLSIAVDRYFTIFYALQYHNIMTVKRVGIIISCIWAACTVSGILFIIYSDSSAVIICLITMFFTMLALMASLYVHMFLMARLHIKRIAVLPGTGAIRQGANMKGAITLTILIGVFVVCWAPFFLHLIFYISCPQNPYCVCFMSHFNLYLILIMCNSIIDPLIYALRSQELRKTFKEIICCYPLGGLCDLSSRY
Exercise: for every item that follows, state its recorded EC50.
Please give a number only; it is taken to be in nM.

Q: Using the record for CC(=O)N[C@@H](Cc1c[nH]cn1)C(=O)NC(Cc1ccccc1)C(=O)NC(Cc1ccccc1)C(=O)N[C@@H](CCCN=C(N)N)C(=O)N[C@@H](Cc1c[nH]c2ccccc12)C(N)=O (stereo in doubt) , report its EC50.
Ans: 59.5

Q: Next up: N=C(N)NCCC[C@H](NC(=O)C(Cc1ccccc1)NC(=O)[C@H](Cc1ccc(Cl)cc1)NC(=O)CC(N)=O)C(=O)N[C@@H](Cc1c[nH]c2ccccc12)C(N)=O (stereo in doubt)
Ans: 14.5

Q: Next up: C=CCNC(=O)N[C@@H](Cc1ccc(Cl)cc1)C(=O)NC(Cc1ccccc1)C(=O)N[C@@H](CCCNC(=N)N)C(=O)N[C@@H](Cc1c[nH]c2ccccc12)C(N)=O (stereo in doubt)
Ans: 12

Q: Next up: N=C(N)NCCC[C@H](NC(=O)C(Cc1ccccc1)NC(=O)C(Cc1ccccc1)NC(=O)[C@H](Cc1c[nH]cn1)NC(=O)CCCC(=O)c1ccccc1)C(=O)N[C@@H](Cc1c[nH]c2ccccc12)C(N)=O (stereo in doubt)
Ans: 5

Q: Next up: CC(C)(C)C(=O)N[C@@H](Cc1ccc(Cl)cc1)C(=O)NC(Cc1ccccc1)C(=O)N[C@@H](CCCN=C(N)N)C(=O)N[C@@H](Cc1c[nH]c2ccccc12)C(N)=O (stereo in doubt)
Ans: 23.7

Q: Next up: N=C(N)NCCC[C@H](NC(=O)C(Cc1ccccc1)NC(=O)[C@H](Cc1ccc(Cl)cc1)NC(=O)c1ccncc1)C(=O)N[C@@H](Cc1c[nH]c2ccccc12)C(N)=O (stereo in doubt)
Ans: 30

Q: Next up: CCCC(=O)N[C@@H](Cc1ccc(Cl)cc1)C(=O)NC(Cc1ccccc1)C(=O)N[C@@H](CCCN=C(N)N)C(=O)N[C@@H](Cc1c[nH]c2ccccc12)C(N)=O (stereo in doubt)
Ans: 106

Q: Next up: N=C(N)NCCC[C@H](NC(=O)C(Cc1ccccc1)NC(=O)[C@H](Cc1ccc(Cl)cc1)NC(=O)c1ccccc1)C(=O)N[C@@H](Cc1c[nH]c2ccccc12)C(N)=O (stereo in doubt)
Ans: 135

Q: Next up: N=C(N)NCCC[C@H](NC(=O)C(Cc1ccccc1)NC(=O)[C@H](Cc1ccc(Cl)cc1)NC(=O)c1ccsc1)C(=O)N[C@@H](Cc1c[nH]c2ccccc12)C(N)=O (stereo in doubt)
Ans: 27

Q: Next up: N=C(N)NCCC[C@H](NC(=O)C(Cc1ccccc1)NC(=O)[C@H](Cc1ccc(Cl)cc1)NC(=O)CCc1ccccc1)C(=O)N[C@@H](Cc1c[nH]c2ccccc12)C(N)=O (stereo in doubt)
Ans: 121

Q: Next up: N=C(N)NCCC[C@H](NC(=O)C(Cc1ccccc1)NC(=O)[C@H](Cc1ccc(Cl)cc1)NC(=O)Nc1ccccc1)C(=O)N[C@@H](Cc1c[nH]c2ccccc12)C(N)=O (stereo in doubt)
Ans: 146

Q: Next up: CNC(=O)N[C@@H](Cc1ccc(Cl)cc1)C(=O)NC(Cc1ccccc1)C(=O)N[C@@H](CCCN=C(N)N)C(=O)N[C@@H](Cc1c[nH]c2ccccc12)C(N)=O (stereo in doubt)
Ans: 8.5

Q: Next up: N=C(N)NCCC[C@H](NC(=O)C(Cc1ccccc1)NC(=O)[C@H](Cc1ccc(Cl)cc1)NC(=O)CCC(=O)c1ccc(F)cc1)C(=O)N[C@@H](Cc1c[nH]c2ccccc12)C(N)=O (stereo in doubt)
Ans: 50

Q: Next up: N=C(N)NCCC[C@H](NC(=O)C(Cc1ccccc1)NC(=O)[C@H](Cc1ccc(Cl)cc1)NC(=O)CNC=O)C(=O)N[C@@H](Cc1c[nH]c2ccccc12)C(N)=O (stereo in doubt)
Ans: 14.1

Q: Next up: N=C(N)NCCC[C@H](NC(=O)C(Cc1ccccc1)NC(=O)[C@H](Cc1ccc(Cl)cc1)NC(=O)CCCC(=O)c1ccccc1)C(=O)N[C@@H](Cc1c[nH]c2ccccc12)C(N)=O (stereo in doubt)
Ans: 58

Q: Next up: N=C(N)NCCC[C@H](NC(=O)C(Cc1ccccc1)NC(=O)[C@H](Cc1ccc(Cl)cc1)NC(=O)c1cccs1)C(=O)N[C@@H](Cc1c[nH]c2ccccc12)C(N)=O (stereo in doubt)
Ans: 18.7

Q: Next up: N=C(N)NCCC[C@H](NC(=O)C(Cc1ccccc1)NC(=O)[C@H](Cc1ccc(Cl)cc1)NC(=O)C(N)=O)C(=O)N[C@@H](Cc1c[nH]c2ccccc12)C(N)=O (stereo in doubt)
Ans: 31.3

Q: Next up: N=C(N)NCCC[C@H](NC(=O)C(Cc1ccccc1)NC(=O)[C@H](Cc1ccc(Cl)cc1)NC(=O)CCC(=O)c1cc(F)cc(F)c1)C(=O)N[C@@H](Cc1c[nH]c2ccccc12)C(N)=O (stereo in doubt)
Ans: 96

Q: Next up: CCC(=O)N[C@@H](Cc1ccc(Cl)cc1)C(=O)NC(Cc1ccccc1)C(=O)N[C@@H](CCCN=C(N)N)C(=O)N[C@@H](Cc1c[nH]c2ccccc12)C(N)=O (stereo in doubt)
Ans: 159

Q: Next up: CSCC(=O)N[C@@H](Cc1ccc(Cl)cc1)C(=O)NC(Cc1ccccc1)C(=O)N[C@@H](CCCN=C(N)N)C(=O)N[C@@H](Cc1c[nH]c2ccccc12)C(N)=O (stereo in doubt)
Ans: 39.3

* * *

target: Melanocortin receptor 3 (Homo sapiens, UniProt P41968); assay: Agonistic activity against human Melanocortin 3 receptor
Sequence (P41968 whole entry): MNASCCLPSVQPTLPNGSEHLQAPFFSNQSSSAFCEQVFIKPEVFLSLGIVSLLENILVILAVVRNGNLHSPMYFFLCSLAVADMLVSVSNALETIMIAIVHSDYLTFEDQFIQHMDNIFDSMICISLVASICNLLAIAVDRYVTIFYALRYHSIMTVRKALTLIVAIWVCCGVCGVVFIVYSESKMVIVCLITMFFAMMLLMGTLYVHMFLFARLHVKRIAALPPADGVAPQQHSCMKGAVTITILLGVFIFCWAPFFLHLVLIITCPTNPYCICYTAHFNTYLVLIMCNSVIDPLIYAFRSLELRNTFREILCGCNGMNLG
property name: EC50 (µM)
Please give a number only; it is taken to be in µM.

Q: Using the record for N=C(N)NCCC[C@H](NC(=O)C(Cc1ccccc1)NC(=O)[C@H](Cc1ccc(Cl)cc1)NC(=O)c1ccncc1)C(=O)N[C@@H](Cc1c[nH]c2ccccc12)C(N)=O (stereo in doubt) , report its EC50.
Ans: 0.992

Q: Next up: COP(=O)(N[C@@H](Cc1ccc(Cl)cc1)C(=O)NC(Cc1ccccc1)C(=O)N[C@@H](CCCN=C(N)N)C(=O)N[C@@H](Cc1c[nH]c2ccccc12)C(N)=O)OC (stereo in doubt)
Ans: 2.64

Q: Next up: N=C(N)NCCC[C@H](NC(=O)C(Cc1ccccc1)NC(=O)[C@H](Cc1ccc(Cl)cc1)NC(=O)CO)C(=O)N[C@@H](Cc1c[nH]c2ccccc12)C(N)=O (stereo in doubt)
Ans: 1.45

Q: Next up: CC(=O)N[C@@H](Cc1ccc(Cl)cc1)C(=O)NC(Cc1ccccc1)C(=O)N[C@@H](CCCN=C(N)N)C(=O)N[C@@H](Cc1c[nH]c2ccccc12)C(N)=O (stereo in doubt)
Ans: 0.553

Q: Next up: N=C(N)NCCC[C@H](NC(=O)C(Cc1ccccc1)NC(=O)[C@H](Cc1ccc(Cl)cc1)NC(=O)CC(N)=O)C(=O)N[C@@H](Cc1c[nH]c2ccccc12)C(N)=O (stereo in doubt)
Ans: 1.01

Q: Next up: C=CCC(=O)N[C@@H](Cc1ccc(Cl)cc1)C(=O)NC(Cc1ccccc1)C(=O)N[C@@H](CCCNC(=N)N)C(=O)N[C@@H](Cc1c[nH]c2ccccc12)C(N)=O (stereo in doubt)
Ans: 0.863

Q: Next up: CN(C)C(=O)N[C@@H](Cc1ccc(Cl)cc1)C(=O)NC(Cc1ccccc1)C(=O)N[C@@H](CCCN=C(N)N)C(=O)N[C@@H](Cc1c[nH]c2ccccc12)C(N)=O (stereo in doubt)
Ans: 0.175

Q: Next up: CCOC(=O)N[C@@H](Cc1ccc(Cl)cc1)C(=O)NC(Cc1ccccc1)C(=O)N[C@@H](CCCN=C(N)N)C(=O)N[C@@H](Cc1c[nH]c2ccccc12)C(N)=O (stereo in doubt)
Ans: 3.08

Q: Next up: N=C(N)NCCC[C@H](NC(=O)C(Cc1ccccc1)NC(=O)[C@H](Cc1ccc(Cl)cc1)NC(=O)Nc1ccccc1)C(=O)N[C@@H](Cc1c[nH]c2ccccc12)C(N)=O (stereo in doubt)
Ans: 0.0925

Q: Next up: C=CCNC(=O)N[C@@H](Cc1ccc(Cl)cc1)C(=O)NC(Cc1ccccc1)C(=O)N[C@@H](CCCNC(=N)N)C(=O)N[C@@H](Cc1c[nH]c2ccccc12)C(N)=O (stereo in doubt)
Ans: 0.045

Q: Next up: N#CCC(=O)N[C@@H](Cc1ccc(Cl)cc1)C(=O)NC(Cc1ccccc1)C(=O)N[C@@H](CCCNC(=N)N)C(=O)N[C@@H](Cc1c[nH]c2ccccc12)C(N)=O (stereo in doubt)
Ans: 3.04

Q: Next up: N=C(N)NCCC[C@H](NC(=O)C(Cc1ccccc1)NC(=O)[C@H](Cc1ccc(Cl)cc1)NC(=O)CCC(=O)c1cc(F)cc(F)c1)C(=O)N[C@@H](Cc1c[nH]c2ccccc12)C(N)=O (stereo in doubt)
Ans: 0.14

Q: Next up: CCC(=O)N[C@@H](Cc1ccc(Cl)cc1)C(=O)NC(Cc1ccccc1)C(=O)N[C@@H](CCCN=C(N)N)C(=O)N[C@@H](Cc1c[nH]c2ccccc12)C(N)=O (stereo in doubt)
Ans: 2.36

Q: Next up: N=C(N)NCCC[C@H](NC(=O)C(Cc1ccccc1)NC(=O)[C@H](Cc1ccc(Cl)cc1)NC(=O)CCCC(=O)c1ccccc1)C(=O)N[C@@H](Cc1c[nH]c2ccccc12)C(N)=O (stereo in doubt)
Ans: 0.041

Q: Next up: N=C(N)NCCC[C@H](NC(=O)C(Cc1ccccc1)NC(=O)[C@H](Cc1ccc(Cl)cc1)NC(=O)CCCCc1ccccc1)C(=O)N[C@@H](Cc1c[nH]c2ccccc12)C(N)=O (stereo in doubt)
Ans: 0.0345

Q: Next up: N=C(N)NCCC[C@H](NC(=O)C(Cc1ccccc1)NC(=O)[C@H](Cc1ccc(Cl)cc1)NC(=O)c1cccnc1)C(=O)N[C@@H](Cc1c[nH]c2ccccc12)C(N)=O (stereo in doubt)
Ans: 0.313

Q: Next up: N=C(N)NCCC[C@H](NC(=O)C(Cc1ccccc1)NC(=O)[C@H](Cc1ccc(Cl)cc1)NC(=O)Cc1ccccc1)C(=O)N[C@@H](Cc1c[nH]c2ccccc12)C(N)=O (stereo in doubt)
Ans: 0.043

Q: Next up: N=C(N)NCCC[C@H](NC(=O)C(Cc1ccccc1)NC(=O)[C@H](Cc1ccc(Cl)cc1)NC(=O)C(N)=O)C(=O)N[C@@H](Cc1c[nH]c2ccccc12)C(N)=O (stereo in doubt)
Ans: 0.164

Q: Next up: N=C(N)NCCC[C@H](NC(=O)C(Cc1ccccc1)NC(=O)[C@H](Cc1ccc(Cl)cc1)NC(=O)CNC=O)C(=O)N[C@@H](Cc1c[nH]c2ccccc12)C(N)=O (stereo in doubt)
Ans: 0.757

Q: Next up: N=C(N)NCCC[C@H](NC(=O)C(Cc1ccccc1)NC(=O)[C@H](Cc1ccc(Cl)cc1)NC(=O)c1ccccc1)C(=O)N[C@@H](Cc1c[nH]c2ccccc12)C(N)=O (stereo in doubt)
Ans: 0.556
